experiment: PHH natural infection assay, cytotoxicity (Cell Counting Kit-8); format: cell-based; settings: human, HBV-infected primary human hepatocytes, CCK8, end of treatment
Measurement Kind: CC50 at 144 h

// below: answered compounds
Compound: CS(=O)(=O)CCc1ccc(C(=O)NC2CC3(C2)CC(c2nc4cc(Cl)ccc4o2)C3)o1 (stereo not drawn) [Example 32]
Test Value: > 100 µM
//
Compound: COCCS(=O)(=O)c1ccc(C(=O)NC2CC3(C2)CC(c2nc4cc(Cl)ccc4o2)C3)o1 (stereo not drawn) [Example 28]
Test Value: 94.2 µM
//
Compound: O=C(NC1CC2(C1)CC(c1nc3cc(Cl)ccc3o1)C2)c1ccc([S+]([O-])C2CC2)o1 (stereo not drawn) [Example 40]
Test Value: > 10 µM

For every item below, please supply its CC50 at 144 h.
1. O=C(NC1CC2(C1)CC(c1nc3ccc(F)cc3o1)C2)c1ccc(C(F)(F)F)o1 (stereo not drawn) [Example 47]
2. CCS(=O)(=O)c1ccc(C(=O)NC2CC3(C2)CC(c2nc4cc(Cl)ccc4o2)C3)o1 (stereo not drawn) [Example 16]
3. O=C(NC1CC2(C1)CC(c1nc3cc(Cl)ccc3o1)C2)c1ccc(CS(=O)(=O)C2CC2)o1 (stereo not drawn) [Example 31]

1. > 100 µM
2. 74 µM
3. > 100 µM

For every item below, please supply its CC50 at 144 h.
1. CCS(=O)(=O)c1cc(C)c(C(=O)NC2CC3(C2)CC(c2nc4cc(Cl)ccc4o2)C3)o1 (stereo not drawn) [Example 37]
2. C[S+]([O-])c1ccc(C(=O)NC2CC3(C2)CC(c2nc4cc(Cl)ccc4o2)C3)o1 (stereo not drawn) [Example 14]
3. O=C(NC1CC2(C1)CC(c1nc3cc(Cl)cnc3o1)C2)c1ccc([S+]([O-])C2CC2)o1 (stereo not drawn) [Example 50]
4. CC(=O)NS(=O)(=O)c1ccc(C(=O)NC2CC3(C2)CC(c2nc4cc(Cl)ccc4o2)C3)o1 (stereo not drawn) [Example 80]
5. O=C(NC1CC2(C1)CC(c1nc3cc(Cl)ccc3o1)C2)c1ccc(S(=O)(=O)CC2COC2)o1 (stereo not drawn) [Example 24]
6. O=C(N[C@H]1CC2(C1)C[C@H](c1nc3cc(Cl)ccc3o1)C2)c1ccc(S(=O)(=O)NC(=O)C23CC(C2)C3)o1 (single isomer, unassigned) [Example 76]

1. > 100 µM
2. 76.5 µM
3. > 100 µM
4. > 100 µM
5. 95.3 µM
6. > 10 µM

For every item below, please supply its CC50 at 144 h.
1. CCCC(=O)NS(=O)(=O)c1ccc(C(=O)N[C@H]2CC3(C2)C[C@H](c2nc4cc(Cl)ccc4o2)C3)o1 (stereo partly drawn) [Example 69]
2. NS(=O)(=O)Cc1ccc(C(=O)NC2CC3(C2)CC(c2nc4cc(Cl)ccc4o2)C3)o1 (stereo not drawn) [Example 33]
3. COc1ccc(C(=O)NC2CC3(C2)CC(c2nc4cc(Cl)ccc4o2)C3)o1 (stereo not drawn) [Example 8]

["> 100 µM", "> 100 µM", "94.2 µM"]

----------
assay: PHH natural infection assay, cytotoxicity (Cell Counting Kit-8); assay type: cell-based; conditions: human, HBV-infected primary human hepatocytes, CCK8, end of treatment
Could you please report measured CC50 at 144 h for the items listed next?
One number for each entry, in µM.

Compound: [H][C@]1(NC(=O)c2ccc(S(C)(=O)=O)o2)C[C@]2(C1)C[C@]([H])(c1nc3cc(Cl)ccc3o1)C2 (single isomer, unassigned)
Measurement Kind: CC50 at 144 h
Test Value: 35.8
--
Compound: COCc1ccc(C(=O)NC2CC3(C2)CC(c2nc4cc(Cl)ccc4o2)C3)o1 (stereo not shown)
Measurement Kind: CC50 at 144 h
Test Value: 91
--
Compound: O=C(NC1CC2(C1)CC(c1nc3ccc(Cl)cc3o1)C2)c1ccc(C(F)(F)F)o1 (stereo not shown)
Measurement Kind: CC50 at 144 h
Test Value: 89.8

As a next step, examine the compound that follows.
Return CC50 at 144 h (reported value) for this compound: O=C(NC1CC2(C1)CC(c1nc3cc(Cl)ccc3o1)C2)c1ccc(S(=O)(=O)NC(=O)C2CCCC2)o1 (stereo not shown)
11.3

meta.source: patent US20230286969A1
